Can you tell me 3H-thymidine uptake for the items I'm about to list?
tested on: human allogenic MLR (human peripheral blood lymphocytes); assay: human allogenic MLR-suppressive activity, 3H-thymidine uptake; type: cell-based; settings: 1 μg/ml; Donor A/Donor B
One number for each entry, in cpm.

# count of solved cases: 3
>  <molecule>
CCCCCCC(O)C=CCCCCC=CCC(O)C(O)C(N)(CO)C(=O)O (stereo not shown)

>  <unitOfMeasure>
cpm

>  <3H-thymidine uptake>
5613

$$$$
>  <molecule>
CCCCCCCCCCCCC/C=C/C[C@@H](O)[C@H](O)[C@@](N)(CO)C(=O)O

>  <unitOfMeasure>
cpm

>  <3H-thymidine uptake>
5545

$$$$
>  <molecule>
CCCCCCCCCCCCCCCC[C@@H](O)[C@H](O)[C@@](N)(CO)C(=O)O

>  <unitOfMeasure>
cpm

>  <3H-thymidine uptake>
7130

$$$$

# lookup: 3H-thymidine uptake of CCCCCCC1(CCCCCC/C=C/C[C@@H](O)[C@H](O)[C@@](N)(CO)C(=O)O)SCCS1
5909

Where do the numbers come from? From patent US5068247A.
